tgt: B.1.351 Spike (SARS-CoV2)
The reader will find reported Kd values listed item by item below.
Give the number; pM is assumed, so skip it.

binder: Ab_14 scFv-Fc (scFv, V domains shown) VH: QVQLQQSGPGLVKPSQTLSLTCAISGDSVSSNSAAWNWIRQSPARGLEWLGRTYYRSRWYNDYAISMKSRITINPDTSKNQFSLQLESVTPEDTAVYYCAREIRGFDYWGQGTLVTVSS VL: QSVLTQPPSASGSPGQSVTISCTGTSSDVGAYNFVSWYQHHPGKAPKLIIYDFNKRPSGVPDRFSGSKSGNTASLTVSGLQADDEADYYCSSYAGSNNFDVVFGGGTKLTVL
Kd / pM: 3.1

Prompt: Can you share its Kd? I mean this binder: Ab_27 scFv-Fc (scFv, V domains shown) VH: QVQLVQSGTEVKKPGASVKVSCKASGYSFTGSHLHWVRQAPGQGLEWMGWINPDSGVINYAQKFQGRVTLTRDTSISTAYMELSGLRSDDTAVYYCARDKAIGYVWALDYWGQGTLVTVSS VL: QSALTQPPSVSGSPGQSVTISCTGTSSDVGTYNRVSWYQQPPGKAPKLMIYEVSNRPSGVSNRFSGSKSGNTASLTISGLQAEDEADYYCSSYTRTFTYVFGTGTKVTVL
Completion: 1.25
